Tested System: Human recombinant PTP1B (Homo sapiens)
Construct: made in house
Sequence (P18031 whole entry): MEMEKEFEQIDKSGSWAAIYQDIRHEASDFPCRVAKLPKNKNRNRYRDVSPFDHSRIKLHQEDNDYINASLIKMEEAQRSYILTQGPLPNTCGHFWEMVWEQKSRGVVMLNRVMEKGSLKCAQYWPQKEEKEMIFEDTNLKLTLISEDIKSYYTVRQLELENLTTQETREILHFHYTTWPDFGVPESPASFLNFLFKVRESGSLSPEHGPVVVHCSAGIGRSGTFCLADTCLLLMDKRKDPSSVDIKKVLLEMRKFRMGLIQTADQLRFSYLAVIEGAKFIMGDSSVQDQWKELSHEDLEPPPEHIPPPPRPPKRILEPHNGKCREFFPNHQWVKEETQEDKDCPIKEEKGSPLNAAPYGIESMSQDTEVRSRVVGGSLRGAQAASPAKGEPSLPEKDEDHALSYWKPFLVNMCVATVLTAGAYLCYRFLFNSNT
Assay Protocol: Inhibition of tri-phosphorylated insulin receptor dodecaphosphopeptide dephosphorylation by hPTP1B (malachite green)
Format: biochemical
Assay Context: recombinant PTP1B, dodecaphosphopeptide substrate
Below is a list of entries, each paired with its recorded pIC50 value.
# pIC50 is unitless: minus log10 of the molar concentration; print number only

// pIC50 value for "CC[C@H](Oc1c(Br)cc(-c2ccc(-c3c(Cc4ccccc4)oc4ccccc34)cc2)cc1Br)C(=O)O" : 6.88

// pIC50 value for "O=C(O)[C@@H](Cc1ccccc1)Oc1ccc(-c2ccc(-c3c(Cc4ccccc4)oc4ccccc34)cc2)cc1" : 6.46

// pIC50 value for "O=C(O)c1ccc(COc2ccc(-c3ccc(-c4c(Cc5ccccc5)oc5ccccc45)cc3)cc2)cc1" : 6.43

// pIC50 value for "O=C(O)CCCOc1ccc(-c2ccc(-c3c(Cc4ccccc4)sc4ccccc34)cc2)cc1Br" : 6.75

// pIC50 value for O=C(O)C(Cc1ccccc1)Oc1ccc(-c2ccc(-c3c(Cc4nccs4)sc4ccccc34)cc2)cc1 (stereo not drawn) : 5.94

// pIC50 value for O=C(O)[C@@H](Cc1ccccc1)Oc1ccc(-c2ccc(-c3c(Cc4ccccn4)sc4ccccc34)cc2)cc1 [Example 33] : 5.81

Values from patent EP1077967B1
